Experiment: yeast display, Sf9 membrane polyspecificity reagent, FACS + sequencing; frameworks hold sequencing errors
EXPERIMENTAL ENDPOINT: polyreactivity (PSR sort gate)

Looking up QVQLVESGGGLVQAGGSLRLSCSASGSTFRVYAMGWYRQAPGKERELVAAISWSGGRTYYADSVKGRFTISRDNAKNTVYLQMNSLKPEDTAVYYCAADTYGRYDYWGQGTQVTVSS , I found its polyreactivity (PSR sort gate) recorded as high polyreactivity

Looking up QVQLVESGGGLVQAGGSLRLSCAASGRTFDGYMGWYRQAPGKERELVAAISYDTGSTYADSVKGRFTISRDNAKNTVYLQMNSLKPEDTAVYYCYGYPYQTLYGYWGQGTQVTVSS , I found its polyreactivity (PSR sort gate) recorded as low polyreactivity

Looking up QVQLVESGGGLVQAGGSLRLSCAASGRTFVNYTMGWYRQAPGKERELVAAIRYRDGSTYYADSVKGRFTISRDNAKNTVYLQMNSLKPEDTAVYYCDTRITQVGDYIYDYWGQGTQGTVSS , I found its polyreactivity (PSR sort gate) recorded as low polyreactivity

Looking up QVQLVESGGGLVQAGGSLRLSCAASGFIFDRNTMGWYRQAPGKERELVAAISRSGGSTYYADSVKGRFTISRDNAKNTVYLLMNSLKPEDSAVYYCAALYYYRNRSYDYWGQGTQVTVSS , I found its polyreactivity (PSR sort gate) recorded as high polyreactivity

Could you now look at the following sequence, please?
Looking up QVQLVESGGGIVQAGGSLRLSCAASGRTFFHYAMGWYRQAPGKERELVAGISSGGRTKYADSVKGRFTISRDNAKNTVYLQMNSLKPEDTAVYYCAASYIVWLTRGAPRKRFDYWGQGTQVTVSS , I found its polyreactivity (PSR sort gate) recorded as high polyreactivity
